FYI, the data here is from patent US11046699B2.

Listed next: entries and their corresponding pIC50.
# system tested: GCN2 (Homo sapiens, UniProt Q9P2K8)
# Sequence (Q9P2K8 whole entry): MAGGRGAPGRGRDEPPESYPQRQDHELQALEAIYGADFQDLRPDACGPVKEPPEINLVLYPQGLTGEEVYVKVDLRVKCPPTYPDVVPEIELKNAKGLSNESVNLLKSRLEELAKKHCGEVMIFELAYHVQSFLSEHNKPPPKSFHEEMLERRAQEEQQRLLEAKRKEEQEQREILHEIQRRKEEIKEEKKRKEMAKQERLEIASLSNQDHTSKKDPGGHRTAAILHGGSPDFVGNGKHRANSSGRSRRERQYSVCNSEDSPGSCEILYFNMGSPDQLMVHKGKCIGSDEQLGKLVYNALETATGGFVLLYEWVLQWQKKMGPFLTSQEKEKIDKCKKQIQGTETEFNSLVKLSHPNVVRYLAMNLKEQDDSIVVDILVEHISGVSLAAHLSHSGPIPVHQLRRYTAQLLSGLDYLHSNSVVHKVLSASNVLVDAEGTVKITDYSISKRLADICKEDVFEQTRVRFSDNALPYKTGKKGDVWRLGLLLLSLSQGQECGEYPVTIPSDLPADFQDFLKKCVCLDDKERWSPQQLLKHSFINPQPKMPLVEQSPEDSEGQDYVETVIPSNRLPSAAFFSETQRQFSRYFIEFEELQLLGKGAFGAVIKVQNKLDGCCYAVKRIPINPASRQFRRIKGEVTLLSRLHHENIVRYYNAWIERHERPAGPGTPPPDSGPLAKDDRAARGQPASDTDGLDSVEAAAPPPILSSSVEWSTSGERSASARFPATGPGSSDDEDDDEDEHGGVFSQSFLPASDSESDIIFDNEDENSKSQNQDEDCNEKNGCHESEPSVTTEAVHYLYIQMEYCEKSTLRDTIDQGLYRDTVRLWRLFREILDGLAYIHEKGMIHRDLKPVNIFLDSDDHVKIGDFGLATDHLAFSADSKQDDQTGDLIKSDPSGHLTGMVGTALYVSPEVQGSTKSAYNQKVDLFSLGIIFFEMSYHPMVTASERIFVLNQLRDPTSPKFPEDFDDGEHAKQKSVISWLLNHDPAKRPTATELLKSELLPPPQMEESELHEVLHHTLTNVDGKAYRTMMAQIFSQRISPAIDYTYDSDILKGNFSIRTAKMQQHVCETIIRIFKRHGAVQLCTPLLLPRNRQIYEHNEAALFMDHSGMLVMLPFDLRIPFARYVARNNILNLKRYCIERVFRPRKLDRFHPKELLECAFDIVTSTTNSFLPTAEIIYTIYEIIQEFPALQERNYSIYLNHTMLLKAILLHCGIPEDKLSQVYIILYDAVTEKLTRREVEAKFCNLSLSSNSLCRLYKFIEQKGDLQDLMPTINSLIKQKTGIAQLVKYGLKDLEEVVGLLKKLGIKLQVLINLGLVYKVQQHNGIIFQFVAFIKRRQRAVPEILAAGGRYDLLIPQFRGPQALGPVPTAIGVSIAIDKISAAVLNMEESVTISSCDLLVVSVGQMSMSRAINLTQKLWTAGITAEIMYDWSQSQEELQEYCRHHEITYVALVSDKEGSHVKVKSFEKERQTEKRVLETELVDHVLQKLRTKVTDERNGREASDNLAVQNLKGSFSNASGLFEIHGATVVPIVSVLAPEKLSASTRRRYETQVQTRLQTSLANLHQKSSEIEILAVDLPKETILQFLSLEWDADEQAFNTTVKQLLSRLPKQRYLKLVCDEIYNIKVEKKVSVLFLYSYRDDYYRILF
# assay info: GCN2 enzymatic endpoint assay: phosphorylation of GFP-eIF2α measured by TR-FRET (Lanthascreen)
# Type: biochemical
# experimental setup: tested as described in Example 77; compound and/or hydrochloride, dihydrochloride or trifluoroacetic acid salt; read-out: IC 50 Activity
pIC50: −log10 of the molar value.

Below: 3 compounds and their reported pIC50.
> print(dat)
                                   compound           val
1  C[C@@]1(C(=O)N2CCNC(=O)C2)CC[C@@H](Nc2ncc3c(Br)nn(-c4cc(F)c5ncccc5c4)c3n2)C1        > 7.60
2  CNC(=O)[C@]1(C)CC[C@@H](Nc2ncc3c(Br)nn(-c4cc(CO)cc(S(C)(=O)=O)c4)c3n2)C1  6.70 to 7.60
3  CNC(=O)C1(C)CC[C@@H](Nc2ncc3c(Br)nn(-c4cc(Cl)cc(CO)c4)c3n2)C1 (stereo partly shown)  6.70 to 7.60

With those in mind, consider the next compound.
Input line: # input compound: CNC(=O)[C@]1(C)CC[C@@H](Nc2ncc3c(Br)nn(-c4ccc(-c5nccs5)cc4)c3n2)C1 ; wanted: its pIC50
Output line: 6.70 to 7.60
